Test system: SEM cells
Assay: cell viability relative to DMSO control; higher = less cytotoxic
Settings: RPMI 5 mM glucose + 10% dialyzed FBS; 48 h; 0.00234 µM
List of cell viability values.
Your answer is read as %, so omit the unit and give the number.

compound=O=C\1N(N\C=C1[N]2C=CN=N2)C3=NC=NC(=C3)N4CCOCC4 endpointname="cell viability" val=77.4
compound="C=CC(=O)Nc1cccc(Nc2nc(NC3CCC(N(C)C)CC3)nc3c2ncn3C(C)C)c1 (stereo not drawn)" endpointname="cell viability" val=111

Next item in the queue.
Data request: # lookup: cell viability of "NC/1=N/C(=O)N(/C=C1F)[C@H]2CS[C@H](CO)O2"
Data returned: 118
